Target: human plasma-derived FX (Haematologic Technologies Inc, USA) (human, UniProt P00742 41-179; P00742 183-488)
Sequence (P00742 41-179, chain 1 of 2): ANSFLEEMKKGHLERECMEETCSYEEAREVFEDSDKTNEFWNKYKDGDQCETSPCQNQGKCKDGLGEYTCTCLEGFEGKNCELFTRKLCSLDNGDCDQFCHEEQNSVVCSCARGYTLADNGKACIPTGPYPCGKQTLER
Sequence (P00742 183-488, chain 2 of 2): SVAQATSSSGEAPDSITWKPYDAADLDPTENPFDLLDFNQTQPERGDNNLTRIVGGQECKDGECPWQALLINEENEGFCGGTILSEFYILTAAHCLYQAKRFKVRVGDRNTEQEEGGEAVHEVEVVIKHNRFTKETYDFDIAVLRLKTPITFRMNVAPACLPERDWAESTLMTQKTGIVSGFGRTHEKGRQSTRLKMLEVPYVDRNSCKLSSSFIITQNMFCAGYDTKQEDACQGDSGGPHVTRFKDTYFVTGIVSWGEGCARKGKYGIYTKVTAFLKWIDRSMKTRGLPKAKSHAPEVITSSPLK
Assay: cell-based or functional assay
measurement-name: kcat/KM (1/(min * nM)) of FX activation by 0.1 nM FIXa with 5 nM compound (min⁻¹ nM⁻¹)
Field: numeric (min⁻¹ nM⁻¹). Do not append units.

Reference set (3 entries):
Cmpd #16 (anti-FX/anti-FIX(a) VHH polypeptide derivative) (bispecific antibody, C16 diacid protractor (P2) via linker LP1 on Cys4 and Cys6 in C-term extension (SEQ ID NO: 9)) DVQLVESGGGVVQPGGSLQLSCAASGGTKRRLAMGWFRQAPGQEREWVAAISRRGGSTNYADSVKGRFTISRDNSKNTVYLDMDDLRPEDTALYYCAADDSVGDGYLDYWGQGTLVTVSSGQAPGQEVQLVESGGGVVQPGGSLRLSCAASGRYFNIYTMSWFRQDPGQEREFVAGLRWTDSSTEYADSVKGRFTISRDNSKNTVYLQMNSLRPEDTALYYCAADRSFLFAQALGATKNYEYWGQGTLVTVSSGQACPC: 0.14
Cmpd #8 (anti-FX/anti-FIX(a) VHH polypeptide derivative) (bispecific antibody, C16 diacid protractor (P2) via linker LP1 on Cys4 and Cys6 in C-term extension (SEQ ID NO: 9), Single chain of two VHH: anti-FX (N-terminal) and anti-FIX(a) (C-terminal)) DVQLVESGGGVVQPGGSLQLSCAASGGTKSRYAMGWFRQAPGQEREFVAAISRRGGSTNYADSVKGRFTISRDNSKNTVYLQMDSLRPEDTALYYCAADDSVGDGYLDYWGQGTLVTVSSGQAPGQEVQLVESGGGVVQPGGSLQLSCAASGRTFNIYTMSWFRQAPGQEREFVAGLRWTDSSTEYADSVKGRFTISRDNSKNTVYLQMDSLRPEDTALYYCAADRSFLFAQALGATKNYEYWGQGTLVTVSSGQACPC: 0.27
Cmpd #17 (anti-FX/anti-FIX(a) VHH polypeptide derivative) (bispecific antibody, C16 diacid protractor (P2) via linker LP1 on Cys4 and Cys6 in C-term extension (SEQ ID NO: 9)) DVQLVESGGGVVQPGGSLQLSCAASGGTKSRYAMGWFRQAPGQEREWVAAISRRGGSTNYADSVKGRFTISRDNSKNTVYLDMDDLRPEDTALYYCAADDSVGDGYLDYWGQGTLVTVSSGQAPGQEVQLVESGGGVVQPGGSLQLSCAASGRTFNIYTMSWFRQDPGQEREFVAGLRWTDSSTEYADSVKGRFTISRDNSKNTVYLQMDSLRPEDTALYYCAADRSFLFAQALGATKNYEYWGQGTLVTVSSGQACPC: 0.15

Req: Param item = Cmpd #13 (anti-FX/anti-FIX(a) VHH polypeptide derivative) (bispecific antibody, C16 diacid protractor (P2) via linker LP1 on Cys4 and Cys6 in C-term extension (SEQ ID NO: 9), Single chain of two VHH: anti-FX (N-terminal) and anti-FIX(a) (C-terminal); also called VHH1.13-L1-2-VHH2.13-E) DVQLVESGGGVVQPGGSLQLSCAASGGTKRRLAMGWFRQAPGQEREWVAAISRRGGSTNYADSVKGRFTISRDNSKNTVYLDMDDLRPEDTALYYCAADDSVGDGYLDYWGQGTLVTVSSGQAPGQEVQLVESGGGVVQPGGSLQLSCAASGRTFNIYTMSWFRQDPGQEREFVAGLRWTDSSTEYADSVKGRFTISRDNSKNTVYLQMDSLRPEDTALYYCAADRSFLFAQALGATKNYEYWGQGTLVTVSSGQACPC ; retrieve measured kcat/KM (1/(min * nM)) of FX activation by 0.1 nM FIXa with 5 nM compound.
Resp: 0.18

Req: Param item = Cmpd #15 (anti-FX/anti-FIX(a) VHH polypeptide derivative) (bispecific antibody, C16 diacid protractor (P2) via linker LP1 on Cys4 and Cys6 in C-term extension (SEQ ID NO:9), Single chain of two VHH: anti-FX (N-terminal) and anti-FIX(a) (C-terminal); also called VHH1.15-L1-2-VHH2.15-E) DVQLVESGGGVVQPGGSLQLSCAASGGTKRRLAMGWFRQAPGQEREWVAAISRRGGSTNYADSVKGRFTISRDNSKNTVYLQMDSLRPEDTALYYCAADDSVGDGYLDYWGQGTLVTVSSGQAPGQEVQLVESGGGVVQPGGSLQLSCAASGRTFNIYTMSWFRQAPGQEREFVAGLRWTDSSTEYADSVKGRFTISRDNSKNTVYLQMDSLRPEDTALYYCAADRSFLFAQALGATKNYEYWGQGTLVTVSSGQACPC ; retrieve measured kcat/KM (1/(min * nM)) of FX activation by 0.1 nM FIXa with 5 nM compound.
Resp: 0.25

Req: Param item = Cmpd #6 (anti-FX/anti-FIX(a) VHH polypeptide derivative) (bispecific antibody, C16 diacid protractor (P2) via linker LP1 on Cys5 and Cys7 in C-term extension (SEQ ID NO: 8), Single chain of two VHH: anti-FX (N-terminal) and anti-FIX(a) (C-terminal)) DVQLVESGGGVVQPGGSLQLSCAASGRTHSRYAMGWFRQAPGQEREFVAAISRRGGSTNYADSVKGRFTISRDNSKNTVYLQMDSLRPEDTALYYCAADDSSGDGYLDYWGQGTLVTVSSGGGGSGGGSEVQLVESGGGVVQPGGSLQLSCAASGRTFNIYTMSWFRQAPGQEREFVAGLRWTDSSTEYADSVKGRFTISRDNSKNTVYLQMDSLRPEDTALYYCAADRSFLFAQALGATKNYEYWGQGTLVTVSSGGGGCSCHHHHHH ; retrieve measured kcat/KM (1/(min * nM)) of FX activation by 0.1 nM FIXa with 5 nM compound.
Resp: 0.33
